System: Porcine Atria myofibrils
Assay: Myofibril ATPase assay (PK/LDH NADH-coupled), atria myofibrils
Type: biochemical
Conditions: Table 7
Readings of Porcine Atria IC25 for the listed compounds
endpointLabel: Porcine Atria IC25 (µM)

>  <compound>
O=C(CN1Cc2c(ccnc2C(F)(F)F)NC1=O)N[C@@H](CO)c1ncc(F)cc1F [Compound N50]

>  <targetEntity>
Porcine Atria myofibrils

>  <measValue>
9.91

$$$$
>  <compound>
C[C@H](NC(=O)[C@@H](Cc1ccccc1)N1Cc2nc(F)ccc2NC1=O)c1ccc(F)cc1F [Compound N97]

>  <targetEntity>
Porcine Atria myofibrils

>  <measValue>
100.00

$$$$
>  <compound>
O=C(CN1C(=O)Nc2cccnc2C12CC2)N[C@@H](CO)c1ccc(F)cc1F [Compound N28]

>  <targetEntity>
Porcine Atria myofibrils

>  <measValue>
0.41

$$$$
>  <compound>
C[C@@H](NC(=O)CN1C(=O)Nc2cccnc2C12CC2)c1ncc(C#N)cc1F [Compound N25]

>  <targetEntity>
Porcine Atria myofibrils

>  <measValue>
13.11

$$$$

---

Test system: Rabbit Skeletal myofibrils (rabbit psoas muscle)
Experiment: Myofibril ATPase assay (PK/LDH NADH-coupled), skeletal myofibrils
Assay type: biochemical
Settings: Table 7

>  <compound>
C[C@H](NC(=O)[C@@H](C)N1Cc2nc(F)ccc2NC1=O)c1ccccc1F

>  <targetEntity>
Rabbit Skeletal myofibrils (rabbit psoas muscle)

>  <Rabbit Psoas IC25 (µM)>
100

$$$$
>  <compound>
C[C@H](NC(=O)CN1Cc2cc(F)cnc2NC1=O)c1ncc(F)cc1F

>  <targetEntity>
Rabbit Skeletal myofibrils (rabbit psoas muscle)

>  <Rabbit Psoas IC25 (µM)>
100

$$$$
>  <compound>
O=C(CN1C(=O)Nc2cccnc2C12CC2)N[C@@H](CO)c1ccc(F)cc1F [Compound N28]

>  <targetEntity>
Rabbit Skeletal myofibrils (rabbit psoas muscle)

>  <Rabbit Psoas IC25 (µM)>
0.2814

$$$$
>  <compound>
C[C@@H](NC(=O)CN1Cc2c(C#N)cncc2NC1=O)c1ncc(F)cc1F

>  <targetEntity>
Rabbit Skeletal myofibrils (rabbit psoas muscle)

>  <Rabbit Psoas IC25 (µM)>
5.343

$$$$

---

Listed here: items and their measured Porcine Atria IC25.
Test system: Porcine Atria myofibrils
Experiment: Myofibril ATPase assay (PK/LDH NADH-coupled), atria myofibrils
Format: biochemical
Conditions: Table 8

>  <testSmiles>
C[C@H](NC(=O)[C@@H](C)N1Cc2cc(F)ccc2NC1=O)c1ccc(F)cc1F

>  <Porcine Atria IC25>
110 nM

$$$$
>  <testSmiles>
COc1cnc([C@@H](C)NC(=O)CN2Cc3cc(F)ccc3NC2=O)c(F)c1

>  <Porcine Atria IC25>
3480 nM

$$$$
>  <testSmiles>
C[C@@H](NC(=O)CN1C(=O)Nc2ccc(F)c(F)c2C12CC2)c1ncc(C#N)cc1Cl

>  <Porcine Atria IC25>
100 nM

$$$$
>  <testSmiles>
Cc1noc([C@@H](C)NC(=O)CN2Cc3c(ccc(F)c3F)NC2=O)n1

>  <Porcine Atria IC25>
43180 nM

$$$$
>  <testSmiles>
CCc1cc(F)cnc1[C@@H](C)NC(=O)CN1Cc2c(ccc(F)c2F)NC1=O

>  <Porcine Atria IC25>
150 nM

$$$$
>  <testSmiles>
C[C@@H](C(=O)N[C@@H](CO)c1ccc(F)cc1F)N1Cc2c(Cl)cccc2NC1=O

>  <Porcine Atria IC25>
1520 nM

$$$$
>  <testSmiles>
Cc1cc(F)ccc1[C@H](C)NC(=O)CN1Cc2cc(F)ccc2NC1=O

>  <Porcine Atria IC25>
50 nM

$$$$
>  <testSmiles>
CC(C)C[C@H](C(=O)N[C@H](C)c1ccc(F)cc1F)N1Cc2c(ccc(F)c2F)NC1=O

>  <Porcine Atria IC25>
100000 nM

$$$$

---

Biological target: Porcine Ventricle myofibrils (left ventricle of Yucatan minipigs) (Sus scrofa)
Construct: Myofibrils from porcine cardiac muscle was isolated from the left ventricle of Yucatan minipigs; tissue Exemplar Genetics; host or cells: left ventricle of Yucatan minipigs
Sequence (P79293 whole entry): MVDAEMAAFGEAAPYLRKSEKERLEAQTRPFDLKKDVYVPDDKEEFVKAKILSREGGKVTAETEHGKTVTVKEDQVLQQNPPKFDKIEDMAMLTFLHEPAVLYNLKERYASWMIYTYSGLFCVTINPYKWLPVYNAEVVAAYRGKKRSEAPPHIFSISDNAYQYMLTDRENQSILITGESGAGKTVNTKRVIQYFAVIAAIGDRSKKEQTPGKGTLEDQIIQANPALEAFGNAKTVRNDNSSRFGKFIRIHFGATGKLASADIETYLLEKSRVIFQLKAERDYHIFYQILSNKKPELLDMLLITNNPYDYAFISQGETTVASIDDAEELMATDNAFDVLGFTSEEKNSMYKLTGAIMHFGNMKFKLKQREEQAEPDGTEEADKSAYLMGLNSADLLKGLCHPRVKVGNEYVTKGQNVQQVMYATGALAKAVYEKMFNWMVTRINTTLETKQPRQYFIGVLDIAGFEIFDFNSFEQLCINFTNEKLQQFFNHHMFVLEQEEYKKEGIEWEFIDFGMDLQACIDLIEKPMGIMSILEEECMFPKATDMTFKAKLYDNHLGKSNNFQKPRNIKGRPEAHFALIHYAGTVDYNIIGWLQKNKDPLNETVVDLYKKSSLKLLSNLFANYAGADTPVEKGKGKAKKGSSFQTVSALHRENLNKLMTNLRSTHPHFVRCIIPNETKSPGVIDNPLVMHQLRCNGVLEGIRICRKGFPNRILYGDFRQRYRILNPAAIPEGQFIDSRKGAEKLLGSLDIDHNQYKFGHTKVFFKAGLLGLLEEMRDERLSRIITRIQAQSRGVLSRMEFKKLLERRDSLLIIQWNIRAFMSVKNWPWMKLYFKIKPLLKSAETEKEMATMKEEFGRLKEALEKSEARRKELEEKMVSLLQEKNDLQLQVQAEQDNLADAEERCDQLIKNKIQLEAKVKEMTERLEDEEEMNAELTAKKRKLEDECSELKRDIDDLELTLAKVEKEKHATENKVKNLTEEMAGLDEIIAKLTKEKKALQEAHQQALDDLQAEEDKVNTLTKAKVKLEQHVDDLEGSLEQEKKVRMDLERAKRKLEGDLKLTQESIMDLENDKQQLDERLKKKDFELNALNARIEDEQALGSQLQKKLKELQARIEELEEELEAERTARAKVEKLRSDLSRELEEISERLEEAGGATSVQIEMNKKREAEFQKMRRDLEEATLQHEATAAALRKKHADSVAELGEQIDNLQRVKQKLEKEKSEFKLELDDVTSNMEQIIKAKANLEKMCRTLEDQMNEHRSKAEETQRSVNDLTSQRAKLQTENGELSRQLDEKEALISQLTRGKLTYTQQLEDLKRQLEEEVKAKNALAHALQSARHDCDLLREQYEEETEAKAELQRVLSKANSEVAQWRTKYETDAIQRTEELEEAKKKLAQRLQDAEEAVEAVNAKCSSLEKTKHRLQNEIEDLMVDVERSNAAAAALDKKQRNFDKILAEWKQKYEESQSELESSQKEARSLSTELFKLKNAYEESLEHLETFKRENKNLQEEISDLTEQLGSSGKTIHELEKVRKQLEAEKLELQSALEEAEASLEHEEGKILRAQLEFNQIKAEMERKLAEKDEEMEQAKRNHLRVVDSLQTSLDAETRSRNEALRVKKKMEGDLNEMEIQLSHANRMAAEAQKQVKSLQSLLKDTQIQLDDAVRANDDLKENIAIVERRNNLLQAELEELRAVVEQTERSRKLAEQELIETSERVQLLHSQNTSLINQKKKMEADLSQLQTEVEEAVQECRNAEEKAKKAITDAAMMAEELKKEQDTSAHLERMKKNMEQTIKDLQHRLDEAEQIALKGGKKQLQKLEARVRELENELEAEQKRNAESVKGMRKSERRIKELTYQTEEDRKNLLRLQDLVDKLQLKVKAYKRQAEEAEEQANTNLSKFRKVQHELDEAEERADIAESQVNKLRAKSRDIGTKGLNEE
Assay: Myofibril ATPase assay (PK/LDH NADH-coupled), ventricle myofibrils
Format: biochemical
Conditions: Table 8
Record criterion met whenever Porcine Ventricle IC25 is at 700 nM or higher; record criterion not met when lower.

>  <testSmiles>
Cc1cc([C@@H](C)NC(=O)CN2Cc3c(ccc(F)c3F)NC2=O)ncc1F

>  <groupLabel>
criterion met

$$$$
>  <testSmiles>
C[C@H](NC(=O)CN1Cc2ccccc2NC1=O)c1ccc(F)cc1F

>  <groupLabel>
criterion not met

$$$$
>  <testSmiles>
C[C@@H](NC(=O)CN1Cc2c(F)cc(Cl)cc2NC1=O)c1ccc(C#N)cc1F

>  <groupLabel>
criterion not met

$$$$
>  <testSmiles>
COc1cc(C#N)ncc1[C@@H](C)NC(=O)CN1Cc2c(ccc(F)c2F)NC1=O

>  <groupLabel>
criterion not met

$$$$
>  <testSmiles>
Cc1cc(F)c2c(c1)NC(=O)N(CC(=O)N[C@H](C)c1ccc(C#N)cc1F)C2

>  <groupLabel>
criterion not met

$$$$
>  <testSmiles>
C[C@H](NC(=O)CN1Cc2c(ccc(C#N)c2F)NC1=O)c1ccc(F)cc1F

>  <groupLabel>
criterion met

$$$$
>  <testSmiles>
C[C@@H]1c2ccccc2NC(=O)N1CC(=O)N[C@H](C)c1ncc(F)cc1F

>  <groupLabel>
criterion met

$$$$
>  <testSmiles>
CC(C)c1cc(F)cnc1[C@@H](C)NC(=O)CN1Cc2c(ccc(F)c2F)NC1=O

>  <groupLabel>
criterion met

$$$$
>  <testSmiles>
CC(C)C[C@H](C(=O)N[C@@H](C)c1ccc(F)cc1F)N1Cc2cc(F)ccc2NC1=O

>  <groupLabel>
criterion met

$$$$
>  <testSmiles>
C[C@@H](NC(=O)CN1Cc2c(ccc(F)c2F)NC1=O)c1c(F)cncc1F

>  <groupLabel>
criterion met

$$$$
>  <testSmiles>
C[C@H](NC(=O)CN1Cc2c(ccc(F)c2F)NC1=O)c1ccc(C#N)cc1F

>  <groupLabel>
criterion not met

$$$$
>  <testSmiles>
C[C@@H](NC(=O)CN1Cc2c(ccc(F)c2F)NC1=O)c1ncc(C#N)s1

>  <groupLabel>
criterion met

$$$$
>  <testSmiles>
CC(C)C[C@@H](C(=O)N[C@@H](C)c1ccc(F)cc1F)N1Cc2c(ccc(F)c2F)NC1=O

>  <groupLabel>
criterion met

$$$$
>  <testSmiles>
Cc1ccc2c(c1F)CN(CC(=O)N[C@H](C)c1ccc(C#N)cc1F)C(=O)N2

>  <groupLabel>
criterion met

$$$$
>  <testSmiles>
C[C@@H](NC(=O)CN1C(=O)Nc2ccc(F)c(F)c2C12CC2)c1ncc(C#N)cc1Cl

>  <groupLabel>
criterion not met

$$$$
>  <testSmiles>
C[C@H](NC(=O)CN1Cc2c(ccc(F)c2C#N)NC1=O)c1ncc(C#N)cc1F

>  <groupLabel>
criterion not met

$$$$
>  <testSmiles>
COc1cc(C#N)ncc1[C@H](C)NC(=O)CN1Cc2c(ccc(F)c2F)NC1=O

>  <groupLabel>
criterion met

$$$$

---

Target: myosin+native RLC (Sus scrofa)
Construct: Full-length myosin was resuspended to 1 mg/mL
Sequence (P79293 whole entry): as above
Assay: NADH-coupled actin-activated ATPase assay, myosin + native RLC
Type: biochemical
Conditions: 1 μM myosin, rabbit skeletal actin, 25° C., 1% DMSO
endpointLabel: Potency, Full-length myosin + native porcine ventricle RLC (nM)

>  <testSmiles>
C[C@H](NC(=O)CN1Cc2c(ccc(F)c2F)NC1=O)c1ccc(C#N)cc1F

>  <readoutUnit>
nM

>  <measValue>
390

$$$$
>  <testSmiles>
C[C@H](NC(=O)CN1C(=O)Nc2cccnc2C12CC2)c1ncc(C#N)cc1F

>  <readoutUnit>
nM

>  <measValue>
2170

$$$$
>  <testSmiles>
C[C@H](NC(=O)C1(N2Cc3c(ccc(F)c3F)NC2=O)CC1)c1ncc(C#N)cc1F

>  <readoutUnit>
nM

>  <measValue>
590

$$$$
>  <testSmiles>
C[C@H](NC(=O)CN1Cc2cc(F)ccc2NC1=O)c1ccc(F)cc1F

>  <readoutUnit>
nM

>  <measValue>
970

$$$$
>  <testSmiles>
O=C(CN1C(=O)Nc2cccnc2C12CC2)N[C@@H]1COc2cc(F)cc(F)c21

>  <readoutUnit>
nM

>  <measValue>
400

$$$$

---

Measured Rabbit Psoas IC25 by item
System: Rabbit Skeletal myofibrils (rabbit psoas muscle)
Assay: Myofibril ATPase assay (PK/LDH NADH-coupled), skeletal myofibrils
Type: biochemical
Details: Table 8
endpointLabel: Rabbit Psoas IC25 (µM)

>  <molecule>
C[C@H](C(=O)N[C@H](CO)c1ccc(F)cc1F)N1Cc2c(Cl)cccc2NC1=O

>  <targetEntity>
Rabbit Skeletal myofibrils (rabbit psoas muscle)

>  <endpointLabel>
Rabbit Psoas IC25

>  <readoutUnit>
µM

>  <measValue>
100

$$$$
>  <molecule>
N#Cc1cnc2c(c1)OCC2NC(=O)CN1Cc2c(ccc(F)c2F)NC1=O (single isomer, unassigned)

>  <targetEntity>
Rabbit Skeletal myofibrils (rabbit psoas muscle)

>  <endpointLabel>
Rabbit Psoas IC25

>  <readoutUnit>
µM

>  <measValue>
0.0191

$$$$
>  <molecule>
C[C@@H](NC(=O)CN1Cc2c(ccc(F)c2C#N)NC1=O)c1ncc(C#N)cc1F

>  <targetEntity>
Rabbit Skeletal myofibrils (rabbit psoas muscle)

>  <endpointLabel>
Rabbit Psoas IC25

>  <readoutUnit>
µM

>  <measValue>
0.3456

$$$$
>  <molecule>
CC(NC(=O)CN1Cc2c(ccc(F)c2F)NC1=O)c1cc2c(cn1)OCCN2C (single isomer, unassigned)

>  <targetEntity>
Rabbit Skeletal myofibrils (rabbit psoas muscle)

>  <endpointLabel>
Rabbit Psoas IC25

>  <readoutUnit>
µM

>  <measValue>
100

$$$$
>  <molecule>
C[C@H](NC(=O)CN1C(=O)Nc2ccc(F)cc2C12CC2)c1ccc(C#N)cn1

>  <targetEntity>
Rabbit Skeletal myofibrils (rabbit psoas muscle)

>  <endpointLabel>
Rabbit Psoas IC25

>  <readoutUnit>
µM

>  <measValue>
100

$$$$
>  <molecule>
C[C@H](NC(=O)CN1Cc2c(Br)cccc2NC1=O)c1ccc(F)cc1F

>  <targetEntity>
Rabbit Skeletal myofibrils (rabbit psoas muscle)

>  <endpointLabel>
Rabbit Psoas IC25

>  <readoutUnit>
µM

>  <measValue>
0.0244

$$$$
>  <molecule>
C[C@@H](NC(=O)CN1C(=O)Nc2ccc(F)c(F)c2C12CC2)c1ncc(C#N)cc1Cl

>  <targetEntity>
Rabbit Skeletal myofibrils (rabbit psoas muscle)

>  <endpointLabel>
Rabbit Psoas IC25

>  <readoutUnit>
µM

>  <measValue>
0.61

$$$$
>  <molecule>
Cc1noc([C@H](C)NC(=O)CN2Cc3c(ccc(F)c3F)NC2=O)n1

>  <targetEntity>
Rabbit Skeletal myofibrils (rabbit psoas muscle)

>  <endpointLabel>
Rabbit Psoas IC25

>  <readoutUnit>
µM

>  <measValue>
1.903

$$$$
>  <molecule>
Cc1cc(C#N)cnc1[C@H](C)NC(=O)CN1Cc2c(ccc(F)c2F)NC1=O

>  <targetEntity>
Rabbit Skeletal myofibrils (rabbit psoas muscle)

>  <endpointLabel>
Rabbit Psoas IC25

>  <readoutUnit>
µM

>  <measValue>
0.0224

$$$$
>  <molecule>
Cc1cc([C@@H](C)NC(=O)CN2Cc3c(ccc(F)c3F)NC2=O)ncc1C#N

>  <targetEntity>
Rabbit Skeletal myofibrils (rabbit psoas muscle)

>  <endpointLabel>
Rabbit Psoas IC25

>  <readoutUnit>
µM

>  <measValue>
100

$$$$
>  <molecule>
Cc1ccc([C@H](C)NC(=O)CN2Cc3cc(F)ccc3NC2=O)c(F)c1

>  <targetEntity>
Rabbit Skeletal myofibrils (rabbit psoas muscle)

>  <endpointLabel>
Rabbit Psoas IC25

>  <readoutUnit>
µM

>  <measValue>
0.1421

$$$$
>  <molecule>
C[C@H](NC(=O)CN1Cc2c(ccc(F)c2F)NC1=O)c1ccc2ncccc2n1

>  <targetEntity>
Rabbit Skeletal myofibrils (rabbit psoas muscle)

>  <endpointLabel>
Rabbit Psoas IC25

>  <readoutUnit>
µM

>  <measValue>
100.00

$$$$
>  <molecule>
C[C@H](NC(=O)CN1Cc2cc(C#N)ccc2NC1=O)c1ncc(F)cc1F

>  <targetEntity>
Rabbit Skeletal myofibrils (rabbit psoas muscle)

>  <endpointLabel>
Rabbit Psoas IC25

>  <readoutUnit>
µM

>  <measValue>
87.6

$$$$
>  <molecule>
Cc1ccc2c(c1F)CN(CC(=O)N[C@H](C)c1ccc(C#N)cc1F)C(=O)N2

>  <targetEntity>
Rabbit Skeletal myofibrils (rabbit psoas muscle)

>  <endpointLabel>
Rabbit Psoas IC25

>  <readoutUnit>
µM

>  <measValue>
100

$$$$
>  <molecule>
O=C(CN1Cc2c(ccc(F)c2F)NC1=O)N[C@H]1COCc2cc(F)cnc21

>  <targetEntity>
Rabbit Skeletal myofibrils (rabbit psoas muscle)

>  <endpointLabel>
Rabbit Psoas IC25

>  <readoutUnit>
µM

>  <measValue>
100.00

$$$$
>  <molecule>
C[C@H](NC(=O)CN1Cc2c(ccc(F)c2F)NC1=O)c1ccc2ccccc2n1

>  <targetEntity>
Rabbit Skeletal myofibrils (rabbit psoas muscle)

>  <endpointLabel>
Rabbit Psoas IC25

>  <readoutUnit>
µM

>  <measValue>
100.00

$$$$
